Reference for the values: patent US20160083466A1

assaySystem: T1, monkey IL-25 expressed with a C-terminal myc-myc-hexahistidine tag (M. fascicularis (cynomolgus monkey))
T1 construct: also called monkey IL-25-MMH; MfIL-25-MMH
T1 chain: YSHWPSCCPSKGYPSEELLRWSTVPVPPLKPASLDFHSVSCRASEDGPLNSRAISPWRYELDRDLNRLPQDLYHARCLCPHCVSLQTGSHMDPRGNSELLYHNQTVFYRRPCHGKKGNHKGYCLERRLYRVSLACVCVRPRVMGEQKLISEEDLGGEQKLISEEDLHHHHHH
protocol: SPR Biacore, captured mAb, 25°C;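 further: Real-time surface plasmon resonance on a Biacore 4000, with IL-25-MMH binding to purified anti-IL-25 antibodies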
Each record here notes measured koff.
endpointName: koff (s⁻¹)

[[record]]
binder = "H4H10863P (antibody, human IgG4, V domains shown) VH: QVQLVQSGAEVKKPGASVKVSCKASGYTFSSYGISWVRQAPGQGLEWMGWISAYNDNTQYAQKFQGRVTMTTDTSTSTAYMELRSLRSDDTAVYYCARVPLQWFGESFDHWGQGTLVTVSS VL: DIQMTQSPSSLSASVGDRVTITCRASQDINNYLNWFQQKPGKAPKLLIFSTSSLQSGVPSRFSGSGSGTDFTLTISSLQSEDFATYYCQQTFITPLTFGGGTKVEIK"
readoutvalue = "6.83e-05"

[[record]]
binder = "H4H10876P (antibody, human IgG4, V domains shown) VH: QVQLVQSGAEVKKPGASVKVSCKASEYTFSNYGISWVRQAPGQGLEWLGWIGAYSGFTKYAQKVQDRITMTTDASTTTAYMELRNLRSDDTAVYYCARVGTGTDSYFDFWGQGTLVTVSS VL: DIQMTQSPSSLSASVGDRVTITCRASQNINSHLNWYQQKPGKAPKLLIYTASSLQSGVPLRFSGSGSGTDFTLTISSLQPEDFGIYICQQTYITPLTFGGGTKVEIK"
readoutvalue = "7.18e-05"

[[record]]
binder = "H4H10905P (antibody, human IgG4, V domains shown) VH: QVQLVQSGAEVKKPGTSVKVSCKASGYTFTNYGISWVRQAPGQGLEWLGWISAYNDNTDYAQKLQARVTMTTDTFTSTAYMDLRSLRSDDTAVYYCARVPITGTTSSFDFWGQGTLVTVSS VL: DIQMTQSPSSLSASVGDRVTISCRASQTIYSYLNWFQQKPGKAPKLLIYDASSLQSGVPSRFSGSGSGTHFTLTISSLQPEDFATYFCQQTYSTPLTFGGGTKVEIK"
readoutvalue = "7.77e-05"

[[record]]
binder = "H4H10861P (antibody, human IgG4, V domains shown) VH: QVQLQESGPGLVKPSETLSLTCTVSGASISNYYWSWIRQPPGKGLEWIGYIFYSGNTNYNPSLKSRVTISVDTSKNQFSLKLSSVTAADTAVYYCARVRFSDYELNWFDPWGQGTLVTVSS VL: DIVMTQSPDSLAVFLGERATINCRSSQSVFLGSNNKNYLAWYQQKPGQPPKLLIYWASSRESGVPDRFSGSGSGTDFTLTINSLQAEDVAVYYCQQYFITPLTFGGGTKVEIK"
readoutvalue = "1.48e-05"

[[record]]
binder = "H4H10871P (antibody, human IgG4, V domains shown) VH: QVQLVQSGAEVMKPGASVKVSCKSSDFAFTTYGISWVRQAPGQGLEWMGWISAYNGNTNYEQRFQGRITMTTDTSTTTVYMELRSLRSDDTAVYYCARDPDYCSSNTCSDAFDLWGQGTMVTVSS VL: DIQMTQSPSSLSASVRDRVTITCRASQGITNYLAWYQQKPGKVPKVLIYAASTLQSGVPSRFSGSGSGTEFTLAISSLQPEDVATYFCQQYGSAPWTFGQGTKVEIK"
readoutvalue = "6.06e-05"

